# Test Summary: In vivo pharmacokinetic properties in rats
# Condition Summary: SD rats, i.v. 1 mg/kg
Parameter Measured: CL (mL/min/kg)

{"Compound": "COC[C@@H](NC(=O)C1CCC(F)(F)CC1)C(=O)N[C@H](Cc1ccccc1)C(=O)C(=O)NCc1nccs1", "Val": 6.48}
{"Compound": "C[C@@H](NC(=O)C1CCC(F)(F)C1)C(=O)N[C@H](Cc1ccccc1)C(=O)C(=O)NCc1nccs1 (stereo partly shown)", "Val": 14.52}
{"Compound": "C[C@@H](NC(=O)CC1CC(F)(F)C1)C(=O)N[C@H](Cc1ccccc1)C(=O)C(=O)NCc1nccs1", "Val": 7.95}
{"Compound": "COC[C@@H](NC(=O)CC1CC(F)(F)C1)C(=O)N[C@H](Cc1ccccc1)C(=O)C(=O)NCc1nccs1", "Val": 7.30}

###

CC50 at 72 h listing for selected compounds.
# Test Summary: Cytotoxic assay against HUVEC cells (MTT, 72 h)
# Format: cell-based, human
# Condition Summary: human

{"Compound": "O=C(NCc1nccs1)C(=O)[C@@H](Cc1ccccc1)NC(=O)[C@H]1CC(F)(F)CN1C(=O)C1CCC(F)(F)CC1", "Unit Of Measure": "µM", "Relation Qualifier": "=", "CC50 at 72 h": 327}
{"Compound": "C[C@@H](NC(=O)C1CCCC(F)(F)C1)C(=O)N[C@H](Cc1ccccc1)C(=O)C(=O)NCc1nccs1 (stereo partly shown)", "Unit Of Measure": "µM", "Relation Qualifier": "=", "CC50 at 72 h": 384}
{"Compound": "O=C(CC1CC(F)(F)C1)NCC(=O)N[C@H](Cc1ccccc1)C(=O)C(=O)NCc1nccs1", "Unit Of Measure": "µM", "Relation Qualifier": ">", "CC50 at 72 h": 500}
{"Compound": "C[C@@H](NC(=O)C1CCC(F)(F)C1)C(=O)N[C@H](Cc1ccccc1)C(=O)C(=O)NCc1cscn1 (stereo partly shown)", "Unit Of Measure": "µM", "Relation Qualifier": "=", "CC50 at 72 h": 468}

###

# Test Summary: Metabolic stability using human liver microsomes
# Type: in vitro ADME
# Condition Summary: pH 7.4, NADPH, 37° C., read-out: Human liver microsomes T1/2

{"Compound": "C[C@@H](NC(=O)C1CCC(F)(F)CC1)C(=O)N[C@H](Cc1ccco1)C(=O)C(=O)NCc1ccccn1", "half-life at 1 µM, min": 33.6}
{"Compound": "CC(C)(C)[C@H](NC(=O)C(F)(F)F)C(=O)N1C[C@H]2[C@@H]([C@H]1C(=O)N[C@H](C#N)C[C@@H]1CCNC1=O)C2(C)C [PF-07321332, Nirmatrelvir, reference compound]", "half-life at 1 µM, min": 21.2}
{"Compound": "C[C@@H](NC(=O)CC1CC1(F)F)C(=O)N[C@H](Cc1ccccc1)C(=O)C(=O)NCc1cscn1 (stereo partly shown)", "half-life at 1 µM, min": 32}
{"Compound": "COC[C@@H](NC(=O)C1CCCC(F)(F)C1)C(=O)N[C@H](Cc1ccccc1)C(=O)C(=O)NCc1nccs1 (stereo partly shown)", "half-life at 1 µM, min": 35.3}

###

Overview of reported log10(IC50) across a group of compounds:
# Study Target: recombinant SARS-CoV-2 M^pro (Severe acute respiratory syndrome coronavirus 2 (2019-nCoV) (SARS-CoV-2), UniProt P0DTD1)
# Test Summary: Inhibition of SARS-CoV-2 M^pro enzyme activity (fluorescent substrate assay)
# Format: biochemical
# Condition Summary: inhibition of SARS-CoV-2 M^pro enzyme activity; values in nM; read-out: IC50
Parameter Measured: log10(IC50) (log10 of the value in nM)

{"Compound": "O=C(NCc1nccs1)C(=O)[C@@H](Cc1ccccc1)NC(=O)[C@H]1CC(F)(F)CN1C(=O)CC1CC1(F)F (stereo partly drawn)", "log10(IC50)": 2.02}
{"Compound": "C[C@@H](NC(=O)COc1ccc2ccccc2c1)C(=O)N[C@H](Cc1ccccc1)C(=O)C(=O)NCc1ccccn1", "log10(IC50)": 1.68}
{"Compound": "O=C(NCc1ccccn1)C(=O)[C@@H](Cc1ccccc1)NC(=O)[C@@H](Cc1ccccn1)NC(=O)C1CCC(F)(F)CC1", "log10(IC50)": 1.44}
{"Compound": "O=C(CNC(=O)c1ccc(F)cc1)N[C@H](Cc1ccccc1)C(=O)C(=O)NCc1nccs1", "log10(IC50)": 2.53}
{"Compound": "C[C@@H](NC(=O)C(C)(C)Oc1ccc(Cl)cc1F)C(=O)N[C@H](Cc1ccccc1)C(=O)C(=O)NCc1ccccn1", "log10(IC50)": 0.76}
{"Compound": "O=C(NCc1ccccn1)C(=O)[C@@H](Cc1ccccc1)NC(=O)C1(NC(=O)C2CC23CCC(F)(F)CC3)CC1 (stereo partly drawn)", "log10(IC50)": 1.37}
{"Compound": "O=C(NC1(C(=O)N[C@H](Cc2ccccc2)C(=O)C(=O)NCc2ccccn2)CCC1)O[C@H]1CO[C@H]2OCC[C@H]21", "log10(IC50)": 1.31}
{"Compound": "CC(C)(NC(=O)NC1CCC(F)(F)CC1)C(=O)N[C@H](Cc1ccccc1)C(=O)C(=O)NCc1ccccn1", "log10(IC50)": 0.96}
{"Compound": "O=C(CC1CC(F)(F)C1)NCC(=O)N[C@H](Cc1ccccc1)C(=O)C(=O)NCc1cscn1", "log10(IC50)": 1.12}
{"Compound": "C[C@@H](NC(=O)c1ccccc1)C(=O)N[C@H](Cc1ccccc1)C(=O)C(=O)NCc1ccccn1", "log10(IC50)": 1.34}
{"Compound": "O=C(NCc1nccs1)C(=O)[C@@H](Cc1ccccc1)NC(=O)C1(NC(=O)C2CCC(F)(F)CC2)CC(F)(F)C1", "log10(IC50)": 1.43}
{"Compound": "O=C(NCc1ccccn1)C(=O)[C@@H](Cc1ccccc1)NC(=O)[C@H](NC(=O)C1CCC(F)(F)CC1)C1CCOCC1", "log10(IC50)": 1.81}
{"Compound": "O=C(CNC(=O)C1CCC(F)(F)CC1)N[C@H](Cc1ccc(Cl)cc1)C(=O)C(=O)NCc1ccccn1", "log10(IC50)": 2.27}
{"Compound": "O=C(COC1CCCC1)NC1(C(=O)N[C@H](Cc2ccccc2)C(=O)C(=O)NCc2ccccn2)CCC1", "log10(IC50)": 1.66}
{"Compound": "O=C(Cc1noc(-c2ccc(F)c(Cl)c2)n1)N[C@H](Cc1ccccc1)C(=O)C(=O)NCc1nccs1", "log10(IC50)": 1.45}
{"Compound": "C[C@@H](NC(=O)C1CC1c1ccccc1)C(=O)N[C@H](Cc1ccccc1)C(=O)C(=O)NCc1ccccn1 (stereo partly drawn)", "log10(IC50)": 1.23}
{"Compound": "CC[C@@H](C)[C@@H](NC(=O)C1CCC(F)(F)CC1)C(=O)N[C@H](Cc1ccccc1)C(=O)C(=O)NCc1ccccn1", "log10(IC50)": 1.19}
{"Compound": "COC[C@@H](NC(=O)N1CCCC(F)(F)C1)C(=O)N[C@H](Cc1ccccc1)C(=O)C(=O)NCc1nccs1", "log10(IC50)": 2.61}
{"Compound": "O=C(CC1CCC(F)(F)CC1)NC1(C(=O)N[C@H](Cc2ccccc2)C(=O)C(=O)NCc2ccccn2)Cc2ccccc2C1", "log10(IC50)": 1.18}
{"Compound": "COc1ccnc(CNC(=O)C(=O)[C@@H](Cc2ccccc2)NC(=O)[C@@H](C)NC(=O)C2CCC(F)(F)CC2)c1", "log10(IC50)": 1.35}
{"Compound": "O=C(CNC(=O)C1CC2CCC1C2)N[C@H](Cc1ccccc1)C(=O)C(=O)NCc1cscn1 (stereo partly drawn)", "log10(IC50)": 1.32}
{"Compound": "O=C(CNC(=O)c1cc2ccccc2o1)N[C@H](Cc1ccccc1)C(=O)C(=O)NCc1ccccn1", "log10(IC50)": 2.33}
{"Compound": "O=C(CNC(=O)[C@@H]1C[C@@H]2[C@H](C1)C2(F)F)N[C@H](Cc1ccccc1)C(=O)C(=O)NCc1ccccn1", "log10(IC50)": 1.27}
{"Compound": "C[C@@H](NC(=O)[C@@H]1C[C@@H]2[C@H](C1)C2(F)F)C(=O)N[C@H](Cc1ccccc1)C(=O)C(=O)NCc1cscn1", "log10(IC50)": 1.03}
{"Compound": "CC(Oc1ccc(C(F)(F)F)cc1)C(=O)N[C@H](C)C(=O)N[C@H](Cc1ccccc1)C(=O)C(=O)NCc1ccccn1 (stereo partly drawn)", "log10(IC50)": 1.31}
{"Compound": "O=C(COc1ccc(F)cc1)N[C@H](Cc1ccccc1)C(=O)C(=O)NCc1ccccn1", "log10(IC50)": 2.47}
{"Compound": "CC(C)(NC(=O)C1(F)CCCCC1)C(=O)N[C@H](Cc1ccccc1)C(=O)C(=O)NCc1ccccn1", "log10(IC50)": 0.99}
